Listed molecules paired with reported IC50
# tested.target: Heat shock protein HSP90 (Homo sapiens, UniProt P07900+P08238)
# test: Inhibition of Hsp90 (unknown origin) ATPase activity assessed as decrease in absorbance using PEP as substrate in presence of ATP and NADH by absorbance based assay
# Assay type: protein assay
Answer format: numeric, nM implied, no suffix.

Please review the entries below; each comes with its answer.
CC(C)N(Cc1cccnc1)C(=O)[C@H]1CCCN1C(=O)c1cc(C2CC2)c(O)cc1O 310
CC(C)N(Cc1cccnc1)C(=O)[C@H]1CCCN1C(=O)c1cc(C2CC2)c(OP(=O)(O)O)cc1O 237
CC(C)NC(=O)Oc1ccc2c(c1)CN(C(=O)c1cc(C3CC3)c(O)cc1O)C2 270

// returns reported IC50 for input `O=C(c1ccccc1O)N1Cc2ccccc2C1`
6940

---

Kd overview
# tested.target: Heat shock protein HSP90 (Homo sapiens, UniProt P07900+P08238)
# test: Binding affinity to Hsp90 (unknown origin) assessed as dissociation constant incubated for 30 mins by fluorescence spectrophotometric analysis
# Format: protein assay
Output spec: scalar in nM, unitless text.

Some compounds with known Kd results, for comparison:
compound	units.text	Kd
CC(C)c1cc(C(=O)N2C[C@@H](c3ccccc3)C[C@@H]2C(=O)N2CCN(C)CC2)c(O)cc1O	nM	2310
CC(C)c1cc(C(=O)N2C[C@@H](c3ccccc3)C[C@@H]2C(=O)NC(C)c2ccccc2)c(O)cc1O (stereo partly drawn)	nM	232
CCC1CCCCN1C(=O)[C@H]1C[C@H](c2ccccc2)CN1C(=O)c1cc(C(C)C)c(O)cc1O (stereo partly drawn)	nM	1677

Name the recorded Kd for `COc1ccc(CNC(=O)[C@H]2C[C@H](c3ccccc3)CN2C(=O)c2cc(C3CC3)c(O)cc2O)cc1` .
168

---

# tested.target: Heat shock protein HSP90 (Homo sapiens, UniProt P07900+P08238)
# test: Binding affinity to Hsp90 (unknown origin) assessed as dissociation constant incubated for 30 mins by fluorescence spectrophotometric analysis
# Type: protein assay
reported.property: Kd
Respond with the figure and its unit, in that order.

molecule	reported.property	assay.result
CC(C)c1cc(C(=O)N2C[C@@H](c3ccccc3)C[C@@H]2C(=O)NCc2ccccc2)c(O)cc1O	Kd	0.087 µM
CCOCCCNC(=O)[C@H]1C[C@H](c2ccccc2)CN1C(=O)c1cc(C(C)C)c(O)cc1O	Kd	1.098 µM
CC(C)CN(C)C(=O)[C@H]1C[C@H](c2ccccc2)CN1C(=O)c1cc(C(C)C)c(O)cc1O	Kd	1.573 µM

Given CC(NC(=O)[C@H]1C[C@H](c2ccccc2)CN1C(=O)c1cc(C2CC2)c(O)cc1O)c1ccccc1 (some centres not stated) , state its recorded Kd.
0.201 µM

# Kd lookup, item `CC(C)c1cc(C(=O)N2C[C@@H](c3ccccc3)C[C@@H]2C(=O)N2CCC(OCC3CC3)CC2)c(O)cc1O`
1.632 µM

Param item = `COCCN1CCN(C(=O)[C@H]2C[C@H](c3ccccc3)CN2C(=O)c2cc(C(C)C)c(O)cc2O)CC1` ; retrieve measured Kd.
0.637 µM

Param item = COc1ccc(C(C)NC(=O)[C@H]2C[C@H](c3ccccc3)CN2C(=O)c2cc(C3CC3)c(O)cc2O)cc1 (some centres not stated) ; retrieve measured Kd.
0.263 µM

Using the record for `CC(C)N(Cc1cccnc1)C(=O)[C@H]1CCCN1C(=O)c1cc(C2CC2)c(O)cc1O` , report its Kd.
0.027 µM
